# Assayed Target: T1, human CD4 on human PBMCs (human, UniProt P01730 26-458)
# T1 construct: whole, on cells; also called hCD4
# Assay Text: FACS, clonal hybridoma supernatant on PBMCs
Binary call on gMFI of CD4+: T from 200000 gMFI upward, F beneath that.

Binder	Label Value
75110_08H06A (antibody, V domains shown) VH: EVQLVESGGGLVQPGGSLRLSCAASGFTFSNYDMHWVRQATGKGLEWVSTIGTAGDTYYPGSVKGRFTISRENAKNSLYLQMNSLRAGDTAVYYCARGGYDYYGMDVWGQGTTVTVSS VL: EIVLTQSPGTLSLSPGERATLSCRASQSITSIYLAWYRQKPGQAPRLLIYGASSRATGIPDRFSGSGSGTDFTLTISRLEPEDFAVYYCQQYGSSPFTFGPGTKVDIK	F
75110_08H11A (antibody, V domains shown) VH: EVQLVESGGGLVQPGGSLRLSCAASGFTFSSYDMHWVRQATGKGLEWVSTIGTAGDTYYPGSVKGRFTISRENAKNSLYLQMNSLRAGDTAVYYCARGGYSYYGMDVWGQGTTVTVSS VL: EIVLTQSPGTLSLSPGERATLSCGASQSVSSTYLAWYQQKPGQAPRLLIYGASSRATGIPDRFSGSGSGTDFTLTISRLEPEDFAVYYCQQFGSSPFTFGPGTKVDIK	F
75110_07J02A (antibody, V domains shown) VH: EVQLVESGGGLVQPGGSLRLSCAASGFTFSSYWMSWVRQAPGKGLEWVANIKEDGSEKYYVDSVKGRFTISRDNAKNSLYLQMNSLRAEDTAVYYCARDGSYSGYGMDVWGQGTTVTVSS VL: AIQMTQSPSSLSASVGDRVTITCRASQGIRNDLGWYQQKPGKAPKLLIYAASSLQSGVPSRFSGRGSGTDFALTISSLQPEDFATYYCLLDYNYPYTFGQGTRLEIK	T
75110_06K03A (antibody, V domains shown) VH: QVQLQESGPGLVKPSETLSLTCTVSGGSISTYYWSWIRQPAGKGLEWIGRINTSGSTTYNPSLKSRVTMSVDTSKNQFSLKLSSVTAADTAVYYCARELERYYYYGMDVWGQGTTVTVSS VL: DIQMTQSPSSLSASVGDRVTITCQASQDISNYLNWYQQKPGKAPKLLIYYASILETGVPSRFSGSGSGTDFTFTISSLQPEDIATYYCQQYDSLPLTFGGGTKVEIK	T
75110_08M20A (antibody, V domains shown) VH: QVQLQESDPGLVKPSETLSLTCTVSGGSISSYYWSWIRQPAGKGLEWIGRIYASGSTNYNPSLKSRVTMSVDTSKNQFSLKLSSVTAADTAVYYCARDREGYYYYGMDVWGQGTTVTVSS VL: DIQMTQSPSSLSASVGDRVTITCQASQDISKYLNWYQQKPGKAPNLLIYAASNLETGVPSRFSGSGSGTDFTFTISSLQPEDIAAYYCQQYDSLPITFGQGTRLEIK	T
75110_08K12A (antibody, V domains shown) VH: EVQLVESGGGLVQPGGSLRLSCAASGFTFSSYDMHWVRQATGKGLEWVSTIGTAGDTYYPGSVKGRFTISRENAENSLYLQMNSLRAGDTALYYCARGDYYYYGMDVWGQGTTVTVSS VL: EIVLTQSPGTLSLSPGERATLSCRASQSVSSTYLAWYQQKPGQAPRLLIYGASNRATGIPDRFSGSGSGTDFTLTISRLEPEDFAVYYCQQFGTSPFTFGPGTKVDIK	F

The reported measurements were obtained from patent US20220112288A1.
